Target: human recombinant α3β3γ2 GABAA receptor (Homo sapiens, UniProt P28472+P34903)
Sequence (P34903 29-492): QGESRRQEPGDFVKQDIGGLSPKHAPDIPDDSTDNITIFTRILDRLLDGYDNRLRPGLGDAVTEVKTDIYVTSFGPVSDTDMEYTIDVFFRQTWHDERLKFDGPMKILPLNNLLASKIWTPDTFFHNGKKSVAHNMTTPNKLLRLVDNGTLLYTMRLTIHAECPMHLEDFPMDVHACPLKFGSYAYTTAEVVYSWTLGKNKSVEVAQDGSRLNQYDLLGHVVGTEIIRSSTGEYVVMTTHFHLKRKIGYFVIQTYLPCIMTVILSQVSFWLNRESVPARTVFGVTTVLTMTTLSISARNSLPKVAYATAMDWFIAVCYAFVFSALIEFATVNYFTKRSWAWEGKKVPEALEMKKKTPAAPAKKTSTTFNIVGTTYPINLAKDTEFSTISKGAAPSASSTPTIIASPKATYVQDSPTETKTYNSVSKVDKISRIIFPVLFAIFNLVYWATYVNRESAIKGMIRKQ
Sequence (P28472 26-473): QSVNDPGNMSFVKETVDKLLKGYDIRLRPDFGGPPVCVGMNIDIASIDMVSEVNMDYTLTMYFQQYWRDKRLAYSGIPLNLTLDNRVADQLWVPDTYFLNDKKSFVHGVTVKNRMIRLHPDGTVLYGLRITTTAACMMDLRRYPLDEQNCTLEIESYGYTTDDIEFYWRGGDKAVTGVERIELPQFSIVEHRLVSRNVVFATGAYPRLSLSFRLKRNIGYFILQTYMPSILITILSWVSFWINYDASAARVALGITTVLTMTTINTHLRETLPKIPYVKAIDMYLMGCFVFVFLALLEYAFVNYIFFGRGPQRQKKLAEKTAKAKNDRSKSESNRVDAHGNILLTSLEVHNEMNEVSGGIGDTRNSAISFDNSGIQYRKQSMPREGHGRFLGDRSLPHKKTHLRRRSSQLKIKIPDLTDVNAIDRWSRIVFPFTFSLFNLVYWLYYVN
Sequence (P18507 40-475 partner): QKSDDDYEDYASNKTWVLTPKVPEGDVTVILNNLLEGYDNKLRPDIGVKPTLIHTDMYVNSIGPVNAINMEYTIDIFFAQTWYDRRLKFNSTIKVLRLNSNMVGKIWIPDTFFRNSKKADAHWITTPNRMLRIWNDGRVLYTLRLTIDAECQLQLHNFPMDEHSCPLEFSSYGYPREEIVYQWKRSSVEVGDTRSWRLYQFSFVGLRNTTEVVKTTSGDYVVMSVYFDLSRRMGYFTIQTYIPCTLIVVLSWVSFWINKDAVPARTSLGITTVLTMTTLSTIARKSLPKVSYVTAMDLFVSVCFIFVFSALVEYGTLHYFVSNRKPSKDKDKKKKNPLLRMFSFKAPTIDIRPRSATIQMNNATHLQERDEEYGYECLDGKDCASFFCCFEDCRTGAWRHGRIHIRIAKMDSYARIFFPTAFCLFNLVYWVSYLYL
Assay: IonWorks Barracuda patch clamp, α3β3γ2 in HEK cells
pEC50: −log10 of the molar value.
valueKind: pEC50

structureNotation	valueMeasured
C[C@@]1(O)CC[C@H]2[C@H](CC[C@@H]3[C@@H]2CC[C@]2(C)[C@@H](C(=O)Cn4cc(C#N)cn4)CC[C@@H]32)C1	6.53

====

Assay: Plasma concentrations in rats designated for pharmacokinetic analysis
Format: in vivo
Conditions: rat, po, 3 mg/kg

compound	concentration at 60 min
C[C@@]1(O)CC[C@H]2[C@H](CC[C@@H]3[C@@H]2CC[C@]2(C)[C@@H](C(=O)Cn4cc(C#N)cn4)CC[C@@H]32)C1 [zuranolone]	301 ng/mL
